# maps each entry to its growth inhibition
test: NCI Yeast Anticancer Drug Screen. Data for the bub3 strain (AID 167); conditions: S. cerevisiae bub3 mutant strain, at 50.0 µM, hits give high values
About 79,000 compounds went through this panel and 15% of them were active in at least one assay; those are over-represented in the sample as a whole.
result type: growth inhibition (%)

molecule: O=C1OC(C2OC(=O)C(=O)C2C(=O)c2ccc(Cl)cc2)C(C(=O)c2ccc(Cl)cc2)C1=O (stereo not given)
result value: 43

molecule: CCCCCCC(/C=C/c1ccccc1)=N\O
result value: 98.8

molecule: O=[N+]([O-])c1ccc(S(=O)(=O)Cc2ccccc2)c2nonc12
result value: 98.4

molecule: Cn1nc(-c2ccccc2NC(=O)C(F)(F)F)c(=O)n(C)c1=S
result value: 27.7

molecule: COc1ccc(CCN2C(=O)C(=O)N(C3CCCCC3)C2=O)cc1OC
result value: 34.1

molecule: Clc1sc2ccccc2c1Cl
result value: -7.55

molecule: CCN(CC)c1ccc(NC(C(=O)c2ccc(Cl)cc2)c2ccc(Cl)cc2)cc1 (stereo not given)
result value: 86.3

molecule: NCc1ccccc1-c1c2nc(c(-c3ccccc3CN)c3ccc([nH]3)c(-c3ccccc3CN)c3nc(c(-c4ccccc4CN)c4ccc1[nH]4)C=C3)C=C2
result value: 79.7

molecule: S=C1NC2=C(CSC/C2=C\c2ccccc2)C(c2ccccc2)N1 (stereo not given)
result value: 73.1

molecule: COc1c2c(cc3ccc(=O)oc13)C(Cl)C(Cl)O2 (stereo not given)
result value: 91.2

---

assay: NCI Yeast Anticancer Drug Screen. Data for the mec2-1 strain (AID 157); details: S. cerevisiae mec2-1 strain, at 50.0 µM
This is part of a sample that, as a whole, favours compounds with a hit. Of some 79,000 tested, about 15% had one in any assay. Calls of active or inactive are those of the source. No stated cut-off is given here; in the data, active means growth inhibition above about 70%; inactive means the rest.
Outcomes: active, inactive

compound: Cc1cc(Br)ccc1NC(=O)/C=C/C(=O)O
discrete label: inactive
//
compound: Nc1nnc2nc(CC(=O)c3ccc([N+](=O)[O-])cc3)c(CC(=O)c3ccc([N+](=O)[O-])cc3)nn12
discrete label: inactive
//
compound: Cc1ccc(S(=O)(=O)NC(CCC(=O)Nc2ccccc2)C(=O)O)cc1 (centres undefined)
discrete label: inactive
//
compound: COC(=O)n1c(C[P+](c2ccccc2)(c2ccccc2)c2ccccc2)cc2ccccc21
discrete label: active
//
compound: O=C1CCCCC1Sc1ccc(Cl)cc1 (centres undefined)
discrete label: active
//
compound: COc1ccc(-c2c(C#N)cc(OC)c(OC)c2OC)c(C=O)c1
discrete label: inactive
//
compound: Cc1c(C(=O)O)nc(C(Br)(Br)Br)[nH]c1=O
discrete label: inactive
//
compound: COc1ccc(SC2=C(N(C)C)C(=O)c3ccccc3C2=O)cc1
discrete label: inactive
//
compound: O=[N+]([O-])c1ccc(/C=N/O)o1
discrete label: active
//
compound: COc1cc(CC(=O)O)c(Cc2ccc3c(c2)Cc2ccccc2-3)cc1OC
discrete label: inactive
//
compound: Nc1ncnc2c1cnn2C1CCCCC1
discrete label: inactive
//
compound: CS/C(=N\C(=S)Nc1ccccc1)Nc1ccccc1
discrete label: active
//
compound: CC(=O)N(C1=C(Cl)C(=O)c2ccccc2C1=O)c1ccc(F)cc1
discrete label: active
//
compound: COC(=O)/C=C1/OC(c2ccccc2)=C(C)C1=O
discrete label: inactive
//
compound: Cn1c2c(c3ccccc31)CCN(CCN1CCN(c3cccc(Cl)c3)CC1)C2=O
discrete label: active
//
compound: O=c1[nH]c2c([N+](=O)[O-])cc(Cl)cc2nc1/C=C(\O)c1ccc(Cl)cc1
discrete label: active
//
compound: CC(C)=CC1C(COC(=O)CCl)C1(C)C (centres undefined)
discrete label: inactive
//
compound: CCCCCCCCCCCCO
discrete label: inactive
//
compound: O=c1c(O)cc2c(O)oc3c(=O)c(O)c(O)c4c(O)oc1c2c43
discrete label: inactive
//
compound: CN(Cc1cc(Cl)cc(Cl)c1)CC(C(=O)c1ccccc1)c1ccccc1 (centres undefined)
discrete label: active
//
compound: COc1ccc(Cc2nc3ccc(Cl)cc3[nH]2)cc1
discrete label: active
//
compound: FC(F)(F)c1ccccc1NC(=S)SCc1ccc(Cl)cc1
discrete label: active
//
compound: Nc1ccccc1Nc1c([N+](=O)[O-])cc(C(F)(F)F)cc1[N+](=O)[O-]
discrete label: active
//
compound: NNc1ccc2ccccc2n1
discrete label: inactive

---

assay: NCI Yeast Anticancer Drug Screen. Data for the mec2-1 strain (AID 157); conditions: S. cerevisiae mec2-1 strain, at 5.0 µM (retest, dose inferred, filed as 0.5), hits give high values
The panel holds about 79,000 compounds, 15% with a hit somewhere; the sample as a whole holds those more often.
# maps each entry to its growth inhibition
result type: growth inhibition (%)

compound: CC(/C=C/NNC1=NC(c2ccccc2)C(c2ccccc2)=NN1)Sc1ccccc1N (centres undefined)
result type: growth inhibition
result value: 22

compound: C/C(=N\N(C)C(=S)Nc1ccccc1)c1ccccn1
result type: growth inhibition
result value: -4

compound: FC(F)(F)c1ccccc1NC(=S)SCc1ccc(Cl)cc1
result type: growth inhibition
result value: -2

compound: CC1CCCCN(CCN(Cc2ccccc2)c2ccccc2)C1 (centres undefined)
result type: growth inhibition
result value: 2

compound: C1CNC(CCNCCSCCNCCC2=NCCN2)=N1
result type: growth inhibition
result value: 1

compound: CCCCCCCCCCCOc1cccc(N2C(N)=NC(N)=NC2(C)C)c1
result type: growth inhibition
result value: 99

compound: Cn1c(=S)c2[nH]c(SCCN3CCCCC3)nc2n(C)c1=O
result type: growth inhibition
result value: 28

compound: CC/C(=N\OC(=O)Nc1ccccc1)c1ccc(OC(=O)Nc2ccccc2)cc1
result type: growth inhibition
result value: -7

compound: CC1=NOC(=O)/C1=C/c1ccc(Cl)c(Cl)c1
result type: growth inhibition
result value: 10

compound: COc1ccc(C(=O)CC(=O)c2ccccc2)cc1
result type: growth inhibition
result value: -1

compound: COc1cc(OC)c(OC)cc1/C=C\c1nccc2ccccc12
result type: growth inhibition
result value: -3

compound: O=C1C(=O)c2cc(Cl)ccc2-c2ccc(Cl)cc21
result type: growth inhibition
result value: 30

compound: CC(=O)Nc1ccc(N=Cc2cc(Cl)cc(Cl)c2O)cc1
result type: growth inhibition
result value: 90

compound: Cc1cccc2c1CC1(C2)Cc2c(C)cccc2C1=O (centres undefined)
result type: growth inhibition
result value: -30

compound: CC1=C(C(=O)Nc2cccc3ccccc23)C(c2cccc([N+](=O)[O-])c2)C(C(=O)Nc2cccc3ccccc23)=C(C)N1
result type: growth inhibition
result value: 22

compound: CC(=O)OC(C)(C)N=Nc1ccc(Br)cc1
result type: growth inhibition
result value: 31

compound: Cc1ccc(C2(C)CC/C(=N/O)c3cc(C)c(C)cc32)cc1C (centres undefined)
result type: growth inhibition
result value: 61

compound: CCCCOC(c1ccccc1)N1CCCCC1 (centres undefined)
result type: growth inhibition
result value: 0

compound: COC1=CC2=CCC3C(CCC4(C)C(C(C)=O)CCC34)C2(C)CC1 (centres undefined)
result type: growth inhibition
result value: -7

compound: COc1ccc(C(=O)OC(=O)c2ccc(OC)cc2)cc1
result type: growth inhibition
result value: -6

compound: Cc1ccc(N=Nc2sc(N)nc2C)cc1C
result type: growth inhibition
result value: -51

compound: Cc1nc2ccc(NCCN(C)C)c3c(=O)c4cc(O)ccc4n1c23
result type: growth inhibition
result value: -3

compound: Nc1nc(-c2cccnc2)nc(N)c1N=O
result type: growth inhibition
result value: 15

compound: O=c1[nH]c2c([N+](=O)[O-])cc(Cl)cc2nc1/C=C(\O)c1ccc(F)cc1
result type: growth inhibition
result value: -6

---

test: NCI Yeast Anticancer Drug Screen. Data for the bub3 strain (AID 167); conditions: S. cerevisiae bub3 mutant strain, at 5.0 µM (retest, dose inferred, filed as 0.5)
The panel holds about 79,000 compounds, 15% with a hit somewhere; the sample as a whole holds those more often. The source made the active and inactive calls. No stated cut-off is given here; in the data, active means growth inhibition above about 70%; inactive means the rest.
Outcomes: Yes (active), No (inactive)

compound: COc1c2c(cc3ccc(=O)oc13)C(Cl)C(Cl)O2 (configuration not stated)
discrete label: No

compound: O=Nc1c2n[nH]c1CCCCCCCCC2
discrete label: No

compound: CCN(CC)C(=S)N/N=C(\C)c1cccc(C)n1
discrete label: Yes

compound: O=c1cccccc1[O-].O=c1cccccc1[O-].O=c1cccccc1[O-].[La+3]
discrete label: No

compound: CCCCCCCCC1(OCCCS(=O)(=O)O)COc2ccccc2OCCOCCOc2ccccc2OC1
discrete label: No

compound: O=C(CCCCOCCCCC(=O)OCC1CCCO1)OCC1CCCO1 (configuration not stated)
discrete label: No

compound: COc1cc2c(cc1O)CCN[C@@]21CS[C@H]2c3c(OC(C)=O)c(C)c4c(c3C(COC1=O)N1C2C2c3c(cc(C)c(OC)c3O)CC([C@@H]1O)N2C)OCO4 (some centres not stated)
discrete label: Yes

compound: O=S(=O)(Nc1ccccc1)c1ccccc1C(O)(c1ccccc1)c1ccccc1
discrete label: No

compound: Cc1cc(O)c(C(=O)/C=C/c2cccnc2)c(=O)[nH]1
discrete label: No

compound: COC(=O)CNC(=O)C(F)(F)F
discrete label: No

compound: C=[CH][Sn]([CH]=C)([S]c1cccc2cccnc12)[S]c1cccc2cccnc12
discrete label: No

compound: O=[N+]([O-])c1ccc(/C=C/[n+]2ccc3ccccc3c2)o1
discrete label: No

compound: Cc1cc(Cl)c(O)c(-c2cc(-c3ccccc3O)c(C#N)c(N)n2)c1
discrete label: No

compound: CC(=O)N1CCCC2=C1CCCCCCCCCC2
discrete label: No

compound: COc1ccccc1NC(=O)CC(=O)N1N=C(C)C(N=Nc2ccc(I)cc2)C1=O (configuration not stated)
discrete label: No

compound: Cc1ccc(/C=N/Nc2ccc([N+](=O)[O-])cc2[N+](=O)[O-])cc1
discrete label: No

compound: COC(=O)CSc1nc2ccccc2[nH]1
discrete label: No

compound: O=[N+]([O-])c1ccc2nc(Nc3ccccc3)c(Nc3ccccc3)nc2c1
discrete label: No

compound: O=C(N/C(=C\c1nc2ccccc2s1)c1ccccc1O)c1ccccc1
discrete label: No

compound: COc1ccc(NS(=O)(=O)c2ccc(F)cc2)cc1
discrete label: No

compound: COc1cc(OC)c(/C=C\c2ccnc3ccccc23)c(OC)c1
discrete label: No

compound: COc1cc2c[n+](C)c3c4ccccc4ccc3c2cc1OC (tested in a mixture with another compound)
discrete label: No
